- Test system: breast line MDA468
- Experiment: In vitro cell culture growth assay (MTS), MDA468
- Assay type: cell-based, human
- Experimental setup: Homo sapiens, 72 h, MDA468 cells, three days after drug treatment

| Compound | IC50 (µM) |
| --- | --- |
| c1ccc(-n2ncc3c(N4CCOCC4)nc(-c4ccc(CN5CCOCC5)cc4)nc32)cc1 | 60 |
| C=CCNC(=O)Nc1ccc(-c2nc(N3CCOCC3)c3cnn(C4CCN(Cc5ccccc5)CC4)c3n2)cc1 [Compound 509] | 1.8 |
| Oc1cccc(-c2nc(N3CCOCC3)c3cnn(C4CCN(CC5CC5)CC4)c3n2)c1 | 1.5 |
| COC(=O)Nc1ccc(-c2nc(N3CCOCC3)c3cnn(C4CCN(C(=O)c5ccccc5F)CC4)c3n2)cc1 | 0.5 |
| CONC(=O)Nc1ccc(-c2nc(N3CCOCC3)c3cnn(C4CCN(C(=O)c5cccnc5)CC4)c3n2)cc1 [Example 308] | 3 |
| CNC(=NC#N)Nc1ccc(-c2nc(N3CCOCC3)c3cnn(C4CCN(C(=O)c5cccnc5)CC4)c3n2)cc1 | 6 |
| COC(=O)Nc1ccc(-c2nc(N3CCOCC3)c3cnn(C4CCN(Cc5ccc(Cl)nc5)CC4)c3n2)cc1 | 2 |

* * *

- System: breast line MDA468
- Experiment: In vitro cell culture growth assay (MTS), MDA468
- Assay type: cell-based, human
- Experimental setup: Homo sapiens, 72 h, MDA468 cells, three days after drug treatment
The reader will find reported log10 of IC50 values listed item by item below.
Measured property: log10 of IC50 (log10 of the value in µM)

| Compound | Target of assay | log10 of IC50 |
| --- | --- | --- |
| CC(C)OC(=O)Nc1ccc(-c2nc(N3CCOCC3)c3cnn(C4CCN(Cc5ccccc5)CC4)c3n2)cc1 | breast line MDA468 | 1.04 |
| CNC(=O)Nc1cccc(-c2nc(N3CCOCC3)c3cnn(C4CCN(Cc5ccccc5)CC4)c3n2)c1 [Compound 228] | breast line MDA468 | 0.83 |
| COc1cncc(-c2nc(N3CCOCC3)c3cnn(C)c3n2)c1 | breast line MDA468 | 0.70 |
| c1ccc(-n2ncc3c(N4CCOCC4)nc(-c4ccc5[nH]ncc5c4)nc32)cc1 | breast line MDA468 | 1.78 |
| CNC(=NC#N)Nc1ccc(-c2nc(N3CCOCC3)c3cnn(C4CCN(Cc5cccnc5)CC4)c3n2)cc1 | breast line MDA468 | 0.58 |
| CNC(=O)Nc1ccc(-c2nc(N3CCOCC3)c3cnn(C4CCC5(CC4)OCCO5)c3n2)cc1 [Compound 566] | breast line MDA468 | -1.07 |
| CNc1ccc(-c2nc(N3CCOCC3)c3cnn(-c4ccccc4)c3n2)cc1 | breast line MDA468 | 1.78 |
| CC(C)C(=O)N1CCC(n2ncc3c(N4CCOCC4)nc(-c4ccc(NC(=O)Nc5cccnc5)cc4)nc32)CC1 | breast line MDA468 | -0.48 |
| CNC(=S)Nc1ccc(-c2nc(N3CCOCC3)c3cnn(C4CCN(C(=O)OC(C)C)CC4)c3n2)cc1 | breast line MDA468 | -0.41 |
| COc1cc(-c2nc(N3CCOCC3)c3cnn(C4CCN(Cc5ccccc5)CC4)c3n2)ccc1N | breast line MDA468 | 0.74 |
| C=CC(=O)N1CCC(n2ncc3c(N4CCOCC4)nc(-c4ccc5[nH]ccc5c4)nc32)CC1 | breast line MDA468 | 0.48 |
| c1ccc(-n2ncc3c(N4CCOCC4)nc(-c4cc5ccccc5[nH]4)nc32)cc1 | breast line MDA468 | 1.36 |
| COc1cc(-c2nc(N3CCOCC3)c3cnn(C4CCN(Cc5ccccc5)CC4)c3n2)ccc1NC(C)=O | breast line MDA468 | 0.61 |
| CN(C)CCCn1ncc2c(N3CCOCC3)nc(-c3cccc(O)c3)nc21 | breast line MDA468 | 0.78 |
| c1cc2cc(-c3nc(N4CCOCC4)c4cnn([C@@H]5CCCNC5)c4n3)ccc2[nH]1 | breast line MDA468 | 1.00 |
